These data points were gathered from PubChem BioAssay (NCI).

# Test Method Notes: NCI Yeast Anticancer Drug Screen. Data for the cln2 rad14 strain (AID 165)
# Experimental Parameters: S. cerevisiae cln2 rad14 strain, at 50.0 µM, stronger effect = higher value
This is part of a sample that, as a whole, favours compounds with a hit. Of some 79,000 tested, about 15% had one in any assay.
Class TRUE: growth inhibition at least 90%. Class FALSE: growth inhibition below 90%.

Compound	Assigned Category
CC[C@@]1(O)CC(OC2CC(N3CCOCC3)C(O)C(C)O2)c2c(O)c3c(c(O)c2[C@H]1O)C(=O)c1cccc(O)c1C3=O (stereo not given in full)	TRUE
CCOP(=O)(OCC)/C(C#N)=C/c1cccc(Br)c1	FALSE

Data request: // inclusive: growth inhibition at least 90%? input: CC(C)O.CC(C)O.OCCN(CCO)CCO.OCCN(CCO)CCO.[Ti+2]
Data returned: FALSE
